Form field: Kd (one value per entry).
biological target: T1, Recombinant human IL-1beta (rhIL-1b) (human, UniProt P01584 117-269); experiment: Biacore high-res, mAb amine-coupled, 23C
T1 construct: R&D Systems Cat. No. 201-LB/CF; also called IL-1β; human IL-1β

binder	result-unit	Kd
8.18.1 (antibody, human IgG4, V domains shown, lambda; also called mAb 8.18.1) VH: QVQLQESGPGLVKPSETLSLTCTVSGGSVSSGGYYWSWIRQPPGKGLEWIGYFYYSGSPNYNPSLKRRIAISVDTSKNQFSLRLSSVTAADTAVYYCARDPMHYYGMDVWGQGTTVTVSS VL: SSELTQPPSVSVFPGQTANITCSGDKLGDKFACWYQQKPGQSPVLVIYRDNKRPSGIPERFSGSNSGNTATLTISGTQAMDEADYYCQAWDSSTYVVFGGGTKLTVL	nM	0.388
9.19.1 (antibody, human IgG4, V domains shown, lambda; also called mAb 9.19.1) VH: QVQLVESGGGVVQPGRSLRLSCAASGFTFNNYGMHWVRQAPGKGLECVAVIWYDGGNKYYADSVKGRFAISRDNSKNTLYLQMNSLRAEDTAVYYCTAVTKLNYYYGMDVWGQRTTVTVS VL: QSALTQPASVSGSPGQSITISCTGTSSDVGGYNYVSWYQQHPGKAPKFMIYEVSNRPSGVSNRFSGSKSGNTASLTISGLQAEDEADYYCSSYTSSSILVFGGGTKLTVL	nM	0.262
6.33.1 (antibody, human IgG4, V domains shown, lambda; also called mAb 6.33.1) VH: QVQLVESGGGVVQPGRSLRLSCAASGFTFSVYGMHWVRQAPGKGLEWVAVIWYDGSNKYYADSVKGRFTISRDNSKNTLYLQMNSLRAEDTAVYYCAREKSSGWFFDYWGQGTLVTVSS VL: QSALTQPASVSGSPGQSITISCTGTSSDVGSYNLVSWYQQHPGKAPKLMIYEVSKRPSGISNRFSGSKSGNTASLTISGLQAEDEADYYCCSYAGNSIWVFGGGTKLTVL	nM	0.236

Data origin: patent US20070065439A1
